Recorded values, source PubChem BioAssay AID1508612.

Assay Notes: passive permeability, PAMPA, ADME assay (AID 1508612)
Experimental Context: pH 7.4, 30.0 min, 50.0 µM
I'd appreciate it if you could label each record using Papp and these ranges: low bin (below 200 ×10⁻⁶ cm/s), mid bin (200 ×10⁻⁶ cm/s to below 500 ×10⁻⁶ cm/s), high bin (500 ×10⁻⁶ cm/s or more)

Could you tell me which band COc1cccc(-c2csc(NC(=O)c3ccncc3NS(=O)(=O)c3ccc(C)cc3)n2)c1 belongs to? high bin

Pick a category. Item: O=C(O)c1ccccc1-c1ccc(/C=c2\sc3nc4cc(Br)cnc4n3c2=O)o1 low bin

----------
Reported Papp values follow for various compounds
Assay Notes: passive permeability, PAMPA, ADME assay (AID 1508612)
Experimental Context: pH 7.4, 30.0 min, 50.0 µM
Write the value in ×10⁻⁶ cm/s as a bare number.

Compound: CCc1ccccc1-n1c(SCC(=O)Nc2ccc(C)cc2)nc2n[nH]c(C)c2c1=N
Papp / ×10⁻⁶ cm/s: 95.3
--
Compound: NC(=O)C1CCN(c2ncc(-c3ccc(Br)cc3)s2)CC1
Papp / ×10⁻⁶ cm/s: 688
--
Compound: O=C1Nc2cc(Cl)ccc2/C1=C\c1cc(Cl)c(O)c(Cl)c1
Papp / ×10⁻⁶ cm/s: 78
--
Compound: COc1nccc(-c2nc(Nc3ccc(F)c(F)c3)c3ccccc3n2)c1Cl
Papp / ×10⁻⁶ cm/s: 30.3
--
Compound: CN1CCc2cc3c(cc2C1)OCO3
Papp / ×10⁻⁶ cm/s: 316

Which value of Papp has been reported for O=C(Nc1nnc(-c2ccco2)o1)c1ccc(Cl)cc1 in the records? 24.2

Tell me the measured Papp of CCc1ccc(C2N=C(N)Nc3nc4ccccc4n32)cc1 (stereo unspecified) , please. 4.65

Any idea what Papp was measured for COc1cccc(N2CCN(c3ncc4c(n3)CCN(Cc3ccc(Br)cc3)C4)CC2)c1 ? 25

----------
Each entry below lists one item and its recorded Papp value.
Assay Notes: passive permeability, PAMPA, ADME assay (AID 1508612)
Experimental Context: pH 7.4, 30.0 min, 50.0 µM
Answer in ×10⁻⁶ cm/s, number only, no unit symbol.

Compound: COc1cc2c(cc1OCCCN1CCCC1)N=C(N)C21CCC1
Papp (×10⁻⁶ cm/s): 6.08
//
Compound: Cc1cccc(N2CCN(C(=O)Cn3ncc4c3-c3ccccc3OC4)CC2)c1C
Papp (×10⁻⁶ cm/s): 676
//
Compound: O=C(NC1CCN(c2cc(-c3ccc(Cl)cc3)[nH]n2)C1)c1ccccc1 (stereo not given)
Papp (×10⁻⁶ cm/s): 706

Now for a further compound.
What value of Papp has been recorded for this entry: Cc1cc2c(C(N)=O)cccc2n1-c1nc2c(c(NCc3ccccc3)n1)COCC2 597

----------
# Papp per entry
Assay Notes: passive permeability, PAMPA, ADME assay (AID 1508612)
Experimental Context: pH 7.4, 30.0 min, 50.0 µM
Could you give me the number in ×10⁻⁶ cm/s? Just the number is fine.

See these solved cases before continuing.
Chem Smiles: O=C(NCCCN1CCCC1=O)c1ccc(-c2ncc3cnc(-c4ccccc4)cn23)cc1
Papp / ×10⁻⁶ cm/s: 292
//
Chem Smiles: Cc1noc(C)c1Cc1ccc(C(=O)N2CCc3c(nc4cc(-c5ccccc5)[nH]n4c3=O)C2)o1
Papp / ×10⁻⁶ cm/s: 7.01
//
Chem Smiles: Cc1ccc(-c2csc(NC(=O)c3ccccc3NS(=O)(=O)c3ccc(C)cc3)n2)cc1
Papp / ×10⁻⁶ cm/s: 35.6

The record that follows has no Papp shown yet.
I have this molecule here, CCN1CCN(c2ncc3c(n2)CCN(Cc2cc(Br)cs2)C3)CC1 , and I need its recorded Papp. 787

----------
Papp by entry:
Assay Notes: passive permeability, PAMPA, ADME assay (AID 1508612)
Experimental Context: pH 7.4, 30.0 min, 50.0 µM
Express your answer in ×10⁻⁶ cm/s, writing the number without its unit.

Compound: C=C1[C@@H](C)C2[C@H](Cc3ccccc3)NC(=O)[C@@]23C(/C=C/C[C@H](C)C[C@@](C)(O)/C=C/[C@@H]3OC(C)=O)[C@@H]1O (stereo not given in full)
Papp (×10⁻⁶ cm/s): 50
--
Compound: CC[C@H](Nc1ncnc2nc[nH]c12)c1nc2cccc(F)c2c(=O)n1-c1ccccc1
Papp (×10⁻⁶ cm/s): 169
--
Compound: Fc1ccc(F)c(Nc2nc(-c3ccncc3)nc3ccccc23)c1
Papp (×10⁻⁶ cm/s): 455

Please give the measured Papp for this compound: COC[C@@H]1CN(C(=O)c2n[nH]c3ccccc23)C[C@H]1c1nc(C)no1 66.8

----------
Assay Notes: passive permeability, PAMPA, ADME assay (AID 1508612)
Experimental Context: pH 7.4, 30.0 min, 50.0 µM
Below: a set of entries, each annotated with reported Papp.
The reply should contain only the number, in ×10⁻⁶ cm/s.

Compound: Cc1nn(CC(=O)NCCCN2CCC(N3CCCCC3)CC2)c(=O)c2cc(-c3ccccc3)nn12
Reading Unit: ×10⁻⁶ cm/s
Recorded Number: 15.4
//
Compound: CCCCNc1oc(-c2cccc3ccccc23)nc1C#N
Reading Unit: ×10⁻⁶ cm/s
Recorded Number: 38
//
Compound: COc1ccc(CNc2ccc(S(=O)(=O)Nc3nccs3)cc2)cc1O
Reading Unit: ×10⁻⁶ cm/s
Recorded Number: 19.3
//
Compound: Cn1cnc(-c2nccc3c(=O)[nH]c(OCCCC(F)(F)F)nc23)c1
Reading Unit: ×10⁻⁶ cm/s
Recorded Number: 109
//
Compound: COc1ccc(-n2nc(C3CCCN(C(=O)Nc4ccccc4)C3)[nH]c2=O)cc1 (stereo not given)
Reading Unit: ×10⁻⁶ cm/s
Recorded Number: 360
//
Compound: Clc1ccccc1-c1nnc2sc(-c3ccc4c(c3)OCO4)nn12
Reading Unit: ×10⁻⁶ cm/s
Recorded Number: 958

Then there is this compound:
Find the recorded Papp belonging to Cc1ccc(S(=O)(=O)Nc2cnccc2C(=O)Nc2nc3ccccc3s2)cc1 and report it. 475

----------
Assay Notes: passive permeability, PAMPA, ADME assay (AID 1508612)
Experimental Context: pH 7.4, 30.0 min, 50.0 µM
# key: entry, value: Papp

Sample answers from the record:
Molecule: CCOc1ccc(N2CC(c3nc(-c4cc(OC)c(OC)c(OC)c4)no3)CC2=O)cc1 (stereo not given)
Quantity Measured: Papp
Result: > 1000 ×10⁻⁶ cm/s

Molecule: Cc1cc(C)nc(NC(=S)N2CCN(c3ccc(F)cc3F)CC2)c1
Quantity Measured: Papp
Result: > 1000 ×10⁻⁶ cm/s

Request the reported Papp associated with CCn1c(C)c(C(C)=O)c(C)c1C(=O)Nc1cccc([S+](=O)([O-])N(C)C)c1 405 ×10⁻⁶ cm/s

Could you tell me which Papp is on file for Clc1ccc(C2=Nn3c(nnc3-c3ccncc3)SC2)cc1 ? 372 ×10⁻⁶ cm/s

Requested read-out: Papp. Entry: COc1ccc(N(C)C(=O)c2cc3c(s2)-c2ccccc2OC3)cc1 822 ×10⁻⁶ cm/s

May I ask what Papp has been recorded for Cc1nc2sccn2c(=O)c1S(=O)(=O)Nc1ccc(N2CCN(S(C)(=O)=O)CC2)cc1 ? 209 ×10⁻⁶ cm/s

Item CC1CCC(n2c3cnccc3c3cnc(Nc4ccc5c(n4)CCN(C(=O)CO)C5)nc32)CC1 (stereo not given) has what recorded Papp? 135 ×10⁻⁶ cm/s

Request the reported Papp associated with O=C(NCCCn1ccnc1)c1ccc(-c2ncc3cnc(-c4cccc(F)c4)cn23)cc1 < 1 ×10⁻⁶ cm/s

# lookup: Papp of Fc1ccc(Nc2nc(-c3ccccc3)cc(-c3ccncc3)n2)cc1F < 1 ×10⁻⁶ cm/s

Which Papp is listed for N=c1c2ccccc2nnn1-c1ccc(C(F)(F)F)cc1 ? 148 ×10⁻⁶ cm/s

----------
Assay Notes: passive permeability, PAMPA, ADME assay (AID 1508612)
Experimental Context: pH 7.4, 30.0 min, 50.0 µM
List of Papp values.
Output spec: scalar in ×10⁻⁶ cm/s, unitless text.

Chem Smiles: CCOC(=O)[C@H]1O[C@H]1C(=O)N[C@@H](CC(C)C)C(=O)NCCC(C)C
Quantity Measured: Papp
Recorded Number: 89
--
Chem Smiles: COc1ccc2[nH]c(=O)c(-c3noc(-c4ccccc4)n3)cc2c1
Quantity Measured: Papp
Recorded Number: 760
--
Chem Smiles: CS(=O)(=O)c1ccccc1-c1csc(N2CCC(C(N)=O)CC2)n1
Quantity Measured: Papp
Recorded Number: 11.9
--
Chem Smiles: Cc1ccc(S(=O)(=O)Nc2cc(Cl)c(Cl)cc2C(=O)Nc2nc(-c3ccccc3)cs2)cc1
Quantity Measured: Papp
Recorded Number: 5

Please examine the following record next.
Papp for Cn1nnnc1Sc1ncnc2sccc12 ? 67.6

----------
Assay Notes: passive permeability, PAMPA, ADME assay (AID 1508612)
Experimental Context: pH 7.4, 30.0 min, 50.0 µM
Quantity Measured: Papp (×10⁻⁶ cm/s)
State the answer as a number, implicitly in ×10⁻⁶ cm/s.

See these solved cases before continuing.
Compound: O=C(O)C1CCN(c2ncc(-c3ccc4c(c3)OCCCO4)s2)CC1
Papp [×10⁻⁶ cm/s]: 10.1
--
Compound: O=C1Nc2cccc(Cl)c2/C1=C\c1cc(Cl)c(O)c(Cl)c1
Papp [×10⁻⁶ cm/s]: 93.9

What measured Papp goes with CCOC(=O)C1CCN(C(=O)C(C)(C)NC(=O)Nc2ccc(-c3ccccc3)cc2)CC1 ? 486

What measured Papp goes with COc1ccc(Cn2c(C(=O)O)c(CNCc3cccc(OC)c3)c3ccc(C)cc32)cc1 ? 361

So what does the record say about Papp for Cc1cc(-c2nnc3n2CCCCC3)c(C)n1-c1ccccc1 ? 581

Please report the recorded Papp for O=C(CCCCn1c(=O)[nH]c2ccsc2c1=O)N1CCN(c2cccc(Cl)c2)CC1 . 855

I'd like to know its Papp. The compound in question is NC(=O)C1CCN(c2nccc(-c3ccc(Br)cc3)n2)CC1 360
